- System: Staphylococcus epidermidis
- ASSAY NOTES: Antibacterial activity against methicillin-sensitive Staphylococcus epidermidis ATCC 12228 assessed as reduction in bacterial growth incubated for 18 hrs by agar dilution method
- Format: functional
- MEASUREMENT CONTEXT: ATCC 12228, 18 h
The compounds listed here are annotated with their MIC.

SMILES NOTATION	QUALIFYING SIGN	MIC, µg/mL
C=C[C@]1(C)C[C@@H](OC(=O)CS[C@@H]2CC[C@H](C(=O)OCC)C[C@H]2NS(=O)(=O)c2ccc(Cl)cc2)[C@]2(C)[C@H](C)CC[C@]3(CCC(=O)[C@H]32)[C@@H](C)[C@@H]1O	=	0.5
C=C[C@]1(C)C[C@@H](OC(=O)CS[C@@H]2CC[C@H](C(=O)OCC)C[C@H]2NS(=O)(=O)c2ccc(NC(C)=O)cc2)[C@]2(C)[C@H](C)CC[C@]3(CCC(=O)[C@H]32)[C@@H](C)[C@@H]1O	=	0.5
C=C[C@]1(C)C[C@@H](OC(=O)CS[C@@H]2CC[C@H](C(=O)OCC)C[C@H]2NS(=O)(=O)c2ccc(C)cc2)[C@]2(C)[C@H](C)CC[C@]3(CCC(=O)[C@H]32)[C@@H](C)[C@@H]1O	=	0.25
C=C[C@]1(C)C[C@@H](OC(=O)CS[C@@H]2CC[C@H](C(=O)OCC)C[C@H]2NS(=O)(=O)c2ccc(C(C)=O)cc2)[C@]2(C)[C@H](C)CC[C@]3(CCC(=O)[C@H]32)[C@@H](C)[C@@H]1O	=	0.25
C=C[C@]1(C)C[C@@H](OC(=O)CS[C@@H]2CC[C@H](C(=O)O)C[C@H]2N)[C@]2(C)[C@H](C)CC[C@]3(CCC(=O)[C@H]32)[C@@H](C)[C@@H]1O	=	2
C=C[C@]1(C)C[C@@H](OC(=O)CS[C@@H]2CC[C@H](C(=O)OCC)C[C@H]2N)[C@]2(C)[C@H](C)CC[C@]3(CCC(=O)[C@H]32)[C@@H](C)[C@@H]1O	=	0.25
C=C[C@]1(C)C[C@@H](OC(=O)CS[C@@H]2CC[C@@H](N)C[C@H]2O)[C@]2(C)[C@H](C)CC[C@]3(CCC(=O)[C@H]32)[C@@H](C)[C@@H]1O	≤	0.03
C=C[C@]1(C)C[C@@H](OC(=O)CS[C@@H]2CC[C@H](C(=O)OCC)C[C@H]2NS(=O)(=O)c2ccc(C#N)cc2)[C@]2(C)[C@H](C)CC[C@]3(CCC(=O)[C@H]32)[C@@H](C)[C@@H]1O	=	0.25
C=C[C@]1(C)C[C@@H](OC(=O)CS[C@@H]2CC[C@H](C(=O)OCC)C[C@H]2NS(=O)(=O)c2ccccc2)[C@]2(C)[C@H](C)CC[C@]3(CCC(=O)[C@H]32)[C@@H](C)[C@@H]1O	=	0.5
C=C[C@]1(C)C[C@@H](OC(=O)CS[C@@H]2CC[C@H](C(=O)OCC)C[C@H]2NS(=O)(=O)c2ccc(OC)cc2)[C@]2(C)[C@H](C)CC[C@]3(CCC(=O)[C@H]32)[C@@H](C)[C@@H]1O	=	0.25
C=C[C@]1(C)C[C@@H](OC(=O)CS[C@@H]2CC[C@H](C(=O)OCC)C[C@H]2NS(=O)(=O)c2ccc(Br)cc2)[C@]2(C)[C@H](C)CC[C@]3(CCC(=O)[C@H]32)[C@@H](C)[C@@H]1O	=	1
C=C[C@]1(C)C[C@@H](OC(=O)CS[C@@H]2CC[C@H](C(=O)OCC)C[C@H]2NS(=O)(=O)c2ccc([N+](=O)[O-])cc2)[C@]2(C)[C@H](C)CC[C@]3(CCC(=O)[C@H]32)[C@@H](C)[C@@H]1O	=	0.5
C=C[C@]1(C)C[C@@H](OC(=O)CS[C@@H]2CC[C@H](C(=O)OCC)C[C@H]2NS(=O)(=O)c2ccc(F)cc2)[C@]2(C)[C@H](C)CC[C@]3(CCC(=O)[C@H]32)[C@@H](C)[C@@H]1O	=	0.5
